- TESTED SYSTEM: Luciferin 4-monooxygenase (Photinus pyralis)
- PROTOCOL DETAILS: Biochemical firefly luciferase enzyme assay for NPC (AID 624030);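 further: purified P. pyralis luciferase at 10 nM with luciferin and ATP substrate; nearly all actives have a fitted effect of over 70% in size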
- CONDITION INFO: purified P. pyralis luciferase, luminescence, 5 min; series mostly up to 58.6 µM
Records with an inconclusive call do not appear. Active and inactive are the calls of the source. The call rests on the fitted dose curve; in most records, active means well fitted inhibition curve with a large enough effect; inconclusive means small, poorly fitted or top-dose-only effect; inactive means flat fitted curve, though single readings scatter.
MEASURED ATTRIBUTE: outcome

>>> result("FC(F)(F)COCC(F)(F)F")
"inactive"
>>> result("O=C(NCCNCC(O)COc1ccc(O)cc1)N1CCOCC1 (stereo not drawn)")
"inactive"
>>> result("Cc1c(C)c2c(c(C)c1OC(=O)CCC(=O)O)CC[C@@](C)(CCC[C@H](C)CCC[C@H](C)CCCC(C)C)O2")
"inactive"
>>> result("Cc1cc2nc3c(=O)[nH]c(=O)nc-3n(C[C@H](O)[C@H](O)[C@H](O)COP(=O)(O)OP(=O)(O)OC[C@H]3O[C@@H](n4cnc5c(N)ncnc54)[C@H](O)[C@@H]3O)c2cc1C")
"inactive"
>>> result("CC[C@H]1OC(=O)[C@H](C)[C@@H](O[C@H]2C[C@@](C)(OC)[C@@H](O)[C@H](C)O2)[C@H](C)[C@@H](O[C@@H]2O[C@H](C)C[C@H](N(C)C)[C@H]2O)[C@](C)(O)C[C@@H](C)CN(C)[C@H](C)[C@@H](O)[C@]1(C)O")
"inactive"

Entry "O=c1[nH]c(=O)n([C@H]2C[C@H](O)[C@@H](CO)O2)cc1/C=C/Br" , outcome reported as inactive

Entry CC(C)NCC(O)COc1ccccc1-n1cccc1 (stereo not drawn) , outcome reported as inactive

Entry "CC(=O)Oc1cc(C(F)(F)F)ccc1C(=O)O" , outcome reported as inactive

---

- Tested on: HB3
- PROTOCOL DETAILS: qHTS profiling for inhibitors of Plasmodium falciparum proliferation (AID 504749); further: nearly all actives have a fitted effect of over 60% in size
- CONDITION INFO: P. falciparum in erythrocytes, SYBR Green DNA, 72 h; series mostly up to 28.7 µM
Records with an inconclusive call do not appear. The source made the active and inactive calls. Calls come from the whole dose curve; as a rule, active = well fitted inhibition curve with a large enough effect; inconclusive = small, poorly fitted or top-dose-only effect; inactive = flat fitted curve, though single readings scatter.
Could you please pick one outcome from this set? active, inactive

Take a look at these entries with their results.
>>> cat("CNC(=O)OCc1cccc(COC(=O)NC)n1")
"inactive"
>>> cat("Cc1ccc(S(=O)(=O)O)cc1C")
"inactive"

Hi team, can someone confirm the assay call for "Nc1ncnc2c1ncn2CCOCP(=O)(O)O" ?
inactive

Hi team, can someone confirm the assay call for "CC(C)CCC[C@@H](C)[C@H]1CC[C@H]2[C@@H]3CC[C@@H]4C[C@H](O)CC[C@]4(C)[C@H]3CC[C@]12C" ?
inactive

---

- PROTOCOL DETAILS: qHTS assay for small molecule activators of the human pregnane X receptor (PXR) signaling pathway (AID 720659)
- CONDITION INFO: DPX-2 HepG2 CYP3A4-luciferase, 24 h; series mostly up to 92.3 µM
Active and inactive are the calls of the source. How the calls were made is not given here.
MEASURED ATTRIBUTE: outcome

>>> result("C[Si](C)(C)O[Si](C)(C)C")
"inactive"
>>> result("CC/C=C\\C/C=C\\C/C=C\\CCCCCCCC(=O)O")
"inactive"
>>> result("Nc1ncnc2c1ncn2[C@H]1CC[C@@H](CO)O1")
"inactive"

---

- TESTED SYSTEM: Glucocorticoid receptor (Homo sapiens)
- PROTOCOL DETAILS: GR-GFP Redistribution (AID 450); further: potency means the concentration at half of the fitted maximal effect
- CONDITION INFO: U2OS GR-GFP nuclear translocation, laser cytometry, 2 h
The source made the active and inactive calls.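 How the source made its calls: active means compounds whose dose series gives a full or clear partial fitted curve of increased nuclear translocation; inconclusive means weak partial curve or effect only at the top dose; inactive means no dose-dependent translocation response.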
MEASURED ATTRIBUTE: Potency

Solved entries:
>>> result("O=C(O)CCC(=O)c1ccc(-c2ccccc2)cc1")
"> 20.6 µM (inactive)"
>>> result("CC(=O)Oc1cccc2c1C(=O)c1c(OC(C)=O)cc(C(=O)O)cc1C2=O")
"> 20.6 µM (inactive)"

Entry "O=P(O)(O)OP(=O)(O)O" , Potency reported as > 46 µM (inactive)

Entry COc1cc(S(C)=O)ccc1-c1nc2ncccc2[nH]1 (stereo not drawn) , Potency reported as > 20.6 µM (inactive)

Entry "Cn1nnnc1SCC1=C(C(=O)O)N2C(=O)[C@@H](NC(=O)[C@H](O)c3ccccc3)[C@H]2SC1" , Potency reported as > 20.6 µM (inactive)

Entry "Cc1cc(C)c(NC(=O)C[C@H](CC(=O)O)c2cccc3ccccc23)c(C(=O)N2CCC3(CCCC3)CC2)c1" , Potency reported as > 46 µM (inactive)

Entry "Cc1cc(-c2ccc(N=Nc3ccc4c(S(=O)(=O)O)cc(S(=O)(=O)O)c(N)c4c3O)c(C)c2)ccc1N=Nc1ccc2c(S(=O)(=O)O)cc(S(=O)(=O)O)c(N)c2c1O" , Potency reported as > 46 µM (inactive)

Entry "Nc1ccc(N=Nc2ccccc2)c(N)n1" , Potency reported as > 20.6 µM (inactive)
